Data provenance is ChEMBL document CHEMBL4385630.

Each item that follows carries a reported log10 MIC.
Tested on: Mycobacterium tuberculosis
run_description: Antimycobacterial activity against Mycobacterium tuberculosis MC2 6230 assessed as reduction in cell viability incubated for 5 days by resazurin based method
Assay type: functional
measurement_setup: MC2 6230, 120 h
readout_kind: log10 MIC (log10 of the value in µM)

{"molecule_smiles": "Cc1ccc2c(n1)C(=O)C(Cl)=C(N(C)C)C2=O", "reported_result": 2.71}
{"molecule_smiles": "C#CCNC1=C(Cl)C(=O)c2ccc(C)nc2C1=O", "reported_result": 2.41}
{"molecule_smiles": "CCCNC1=C(Cl)C(=O)c2nc(C)ccc2C1=O", "reported_result": 2.71}
{"molecule_smiles": "CCCCCCCCNC1=C(Cl)C(=O)c2ncccc2C1=O", "reported_result": 1.20}
{"molecule_smiles": "Cc1ccc2c(n1)C(=O)C(Cl)=C(Nc1ccccc1)C2=O", "reported_result": 2.71}
{"molecule_smiles": "O=C1C(NCCc2ccccc2)=C(Cl)C(=O)c2ncccc21", "reported_result": 2.11}
{"molecule_smiles": "Cc1ccc2c(n1)C(=O)C(N1CCCCC1)=C(Cl)C2=O", "reported_result": 2.41}
{"molecule_smiles": "Cc1ccc2c(n1)C(=O)C(NCCc1ccccc1)=C(Cl)C2=O", "reported_result": 1.20}
{"molecule_smiles": "C#CCNC1=C(Cl)C(=O)c2nc(C)ccc2C1=O", "reported_result": 1.81}
{"molecule_smiles": "O=C1C(Cl)=C(NCCc2ccccc2)C(=O)c2ncccc21", "reported_result": 1.20}
{"molecule_smiles": "CCCCCCCCNC1=C(Cl)C(=O)c2cccnc2C1=O", "reported_result": 1.81}
{"molecule_smiles": "CCCCCCCCNC1=C(Cl)C(=O)c2nc(C)ccc2C1=O", "reported_result": 2.11}
